target: APC11/APC2 (Homo sapiens, UniProt Q9NYG5+Q9UJX6); test: APC-11/APC-2 ligase assay (APC auto ubiquitination); conditions: APC assay
Sequence (Q9NYG5 whole entry): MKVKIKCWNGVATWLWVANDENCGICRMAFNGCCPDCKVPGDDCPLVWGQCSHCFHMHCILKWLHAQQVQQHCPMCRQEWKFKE
Sequence (Q9UJX6 whole entry): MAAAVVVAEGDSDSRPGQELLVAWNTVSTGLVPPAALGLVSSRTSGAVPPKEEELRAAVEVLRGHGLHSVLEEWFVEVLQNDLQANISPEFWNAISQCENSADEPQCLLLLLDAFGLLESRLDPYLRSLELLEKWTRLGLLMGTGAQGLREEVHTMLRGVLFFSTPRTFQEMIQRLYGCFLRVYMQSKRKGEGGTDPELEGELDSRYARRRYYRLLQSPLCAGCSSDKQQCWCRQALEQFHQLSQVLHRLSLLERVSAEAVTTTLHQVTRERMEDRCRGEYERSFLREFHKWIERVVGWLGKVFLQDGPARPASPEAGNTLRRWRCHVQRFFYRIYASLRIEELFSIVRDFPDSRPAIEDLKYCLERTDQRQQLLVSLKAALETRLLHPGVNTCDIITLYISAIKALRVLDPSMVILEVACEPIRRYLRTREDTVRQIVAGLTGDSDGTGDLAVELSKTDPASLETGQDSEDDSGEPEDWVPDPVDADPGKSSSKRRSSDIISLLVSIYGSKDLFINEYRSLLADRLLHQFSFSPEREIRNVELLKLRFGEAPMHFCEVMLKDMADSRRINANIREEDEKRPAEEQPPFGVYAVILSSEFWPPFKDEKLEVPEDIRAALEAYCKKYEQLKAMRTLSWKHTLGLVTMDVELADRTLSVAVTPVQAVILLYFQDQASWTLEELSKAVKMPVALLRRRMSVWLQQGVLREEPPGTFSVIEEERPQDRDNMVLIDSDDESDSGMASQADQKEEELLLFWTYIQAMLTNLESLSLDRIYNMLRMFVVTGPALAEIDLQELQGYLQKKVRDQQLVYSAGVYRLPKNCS
pIC50: −log10 of the molar value.
readout name: pIC50

Example entries and their recorded answers appear below.
O=S(=O)(Nc1ccc(O)c2ccccc12)c1ccc(Cl)c2nonc12 : 4.70 to 6.00
FC(F)(F)c1ccc(-c2cc(-c3ccc(C(F)(F)F)cc3)c3nonc3c2)cc1 : ≤ 4.70
O=[N+]([O-])c1c(N2CCCCC2)cc(-c2ccc(C(F)(F)F)cc2)c2nonc12 : ≤ 4.70
Cc1ccccc1-c1ccc([N+](=O)[O-])c2nonc12 : ≤ 4.70
O=S(=O)(Nc1ccc(F)cc1F)c1ccc(Cl)c2nonc12 : ≤ 4.70
Cc1cccc(-c2ccc([N+](=O)[O-])c3nonc23)c1 : 4.70 to 6.00
O=S(=O)(NCC1CC1)c1ccc(Cl)c2nonc12 : ≤ 4.70
Cc1cccc(C(C)C)c1NS(=O)(=O)c1ccc(Cl)c2nonc12 : ≤ 4.70
COc1ccccc1Nc1ccc(S(=O)(=O)Nc2ccccc2F)c2nonc12 : ≤ 4.70
COc1ccccc1C(=O)Nc1ccc(Nc2cccc(F)c2F)c2nonc12 : ≤ 4.70

Now consider the entry below.
Query: Entry under review: O=[N+]([O-])c1ccc(N2CCN(c3ncc(C(F)(F)F)cc3Cl)CC2)c2nonc12 . Reported pIC50?
Reply: > 6.00

Data origin: patent US20050282818A1
